tested on: SNB-19 CNS; test: NCI-60 one-dose screen, 48 h (100 = growth as untreated, 0 = no growth, -100 = all killed); settings: 10 µM unless noted
About 83,000 compounds went through this panel and 20% of them were active in at least one assay; those are over-represented in the sample as a whole.
Could you please mark met for values of growth below 50% and not met for values at or above it?

Solved entries:
Cc1ccc(S(=O)(=O)NC(CCC(=O)Nc2ccccc2)C(=O)Nc2ccccc2)cc1 (stereo not given); met
O=C1/C(=N\c2cc(=O)[nH]n2S(=O)(=O)c2ccccc2)Nc2ccccc21; not met
CCC1(CC)C(OC)NC(Br)=C(C#N)C1(C#N)C(N)=O (stereo not given); not met
COc1ccc(Cn2cc3c(c2-c2ccc(OC)cc2)CCc2cnoc2-3)cc1; met
O=c1c2c(c3ccccc3n1-c1ccccc1)NC(=S)NC2c1ccccc1 (stereo not given); not met

Inquiry: Hello, is growth of the following molecule strictly smaller than 50%? COc1cc(-c2cc3cnccc3c3nc(N)c4ccncc4c23)cc(OC)c1OC
Reply text: not met

Inquiry: Is growth of O=C(/C=C1\C(=O)N(Cc2ccc([N+](=O)[O-])cc2)c2ccccc21)c1ccc(OCCN2CCCC2)cc1 strictly below 50%?
Reply text: not met

Inquiry: Strictly below 50%: is that where growth of COc1ccc2sc(-n3nc4nc5n(c(=O)c4c3N)-c3ccccc3Sc3ccccc3-5)nc2c1 sits?
Reply text: not met

Inquiry: Determine if C/C(=N\Nc1ccc(Cl)cn1)c1ccc2ccccc2n1 shows growth strictly lower than 50%.
Reply text: met

Inquiry: Is 50% strictly greater than the molecule's reported growth? molecule: O=C(/C=C/c1cccc(O)c1)c1cccc(-n2cc(-c3ccc(Cl)cc3)[nH]c2=O)c1
Reply text: met
